Values were extracted from ChEMBL document CHEMBL1121566.

# study_system: Aldo-keto reductase family 1 member B1 (Oryctolagus cuniculus) (UniProt P15122)
# test_summary: Antiallergic agent with Aldose reductase Inhibitory Activity at 10E-5 M concentration
Quick reference for inhibition among some molecules
Number plus unit, in that order.

# molecule, inhibition
rows = [
    ("O=C(O)c1ccc2oc3ccc(S(=O)(=O)N(CCO)CCO)cc3c(=O)c2c1", "49%"),
]

Measured inhibition, CN(C)S(=O)(=O)c1ccc2oc3ccc(C(=O)O)cc3c(=O)c2c1 : 87%

Measured inhibition, O=C(O)c1ccc2oc3ccc(S(=O)(=O)CCO)cc3c(=O)c2c1 : 77%

Measured inhibition, NS(=O)(=O)c1ccc2oc3ccc(C(=O)O)cc3c(=O)c2c1 : 20%

Measured inhibition, O=C(O)c1ccc2oc3ccc(S(=O)(=O)N4CCCC4)cc3c(=O)c2c1 : 46%

Measured inhibition, C[S+]([O-])c1ccc2oc3ccc(C(=O)O)cc3c(=O)c2c1 (stereo unspecified) : 20%

Measured inhibition, COC(C)c1ccc2oc3ccc(C(=O)O)cc3c(=O)c2c1 (stereo unspecified) : 6%

Measured inhibition, O=C(O)c1ccc2oc3ccc(S(=O)(=O)NCCO)cc3c(=O)c2c1 : 38%

Measured inhibition, O=C(O)c1ccc2oc3ccc(S(=O)(=O)N4CCOCC4)cc3c(=O)c2c1 : 6%

Measured inhibition, O=C(O)c1ccc2oc3ccc(OCC(O)CO)cc3c(=O)c2c1 (stereo unspecified) : 46%

Measured inhibition, CCN(C)S(=O)(=O)c1ccc2oc3ccc(C(=O)O)cc3c(=O)c2c1 : 81%

---

# study_system: Aldo-keto reductase family 1 member B1 (Oryctolagus cuniculus) (UniProt P15122)
# test_summary: Antiallergic agent with Aldose reductase Inhibitory Activity at 10E-5 M concentration
Quick reference for inhibition among some compounds
Write it as a number; the unit % goes unstated.

Observe how each entry below is paired with its result.
# compound, inhibition (%)
measured = [
    ("CC(C)CN(C)S(=O)(=O)c1ccc2oc3ccc(C(=O)O)cc3c(=O)c2c1", 75),
    ("O=C(O)c1ccc2oc3ccc(SCCO)cc3c(=O)c2c1", 65),
]

Value sought: inhibition, system Aldo-keto reductase family 1 member B1 (Oryctolagus cuniculus) (UniProt P15122), item CC(O)c1ccc2oc3ccc(C(=O)O)cc3c(=O)c2c1 (configuration not stated) . Result: 10

Value sought: inhibition, system Aldo-keto reductase family 1 member B1 (Oryctolagus cuniculus) (UniProt P15122), item O=C(O)c1ccc2oc3ccccc3c(=O)c2c1 . Result: 10

Value sought: inhibition, system Aldo-keto reductase family 1 member B1 (Oryctolagus cuniculus) (UniProt P15122), item CN(CCO)S(=O)(=O)c1ccc2oc3ccc(C(=O)O)cc3c(=O)c2c1 . Result: 96

Value sought: inhibition, system Aldo-keto reductase family 1 member B1 (Oryctolagus cuniculus) (UniProt P15122), item O=c1c(O)c(-c2ccc(O)c(O)c2)oc2cc(O)cc(O)c12 . Result: 52

Value sought: inhibition, system Aldo-keto reductase family 1 member B1 (Oryctolagus cuniculus) (UniProt P15122), item CNS(=O)(=O)c1ccc2oc3ccc(C(=O)O)cc3c(=O)c2c1 . Result: 40

---

# study_system: Aldo-keto reductase family 1 member B1 (Oryctolagus cuniculus) (UniProt P15122)
# test_summary: Percent inhibition of rabbit lens aldose reductase in vitro at 10E-4 M concentration
quantity_name: inhibition (%)
Write it as a number; the unit % goes unstated.

# molecule, quantity_name, readout_value
measured = [
    ("CC(O)c1ccc2oc3ccc(C(=O)O)cc3c(=O)c2c1 (configuration not stated)", "inhibition", 50),
    ("O=C(O)c1ccc2oc3ccc([S+]([O-])CCO)cc3c(=O)c2c1 (configuration not stated)", "inhibition", 87),
    ("O=C(O)c1ccc2oc3ccc(S(=O)(=O)N(CCO)CCO)cc3c(=O)c2c1", "inhibition", 89),
    ("O=C(O)c1ccc2oc3ccc(S(=O)(=O)N4CCOCC4)cc3c(=O)c2c1", "inhibition", 76),
    ("CCN(C)S(=O)(=O)c1ccc2oc3ccc(C(=O)O)cc3c(=O)c2c1", "inhibition", 92),
]

Measured inhibition, O=C(O)c1ccc2oc3ccc(OCC(O)CO)cc3c(=O)c2c1 (configuration not stated) : 88

Measured inhibition, CC(C)N(C)S(=O)(=O)c1ccc2oc3ccc(C(=O)O)cc3c(=O)c2c1 : 89

Measured inhibition, O=C(O)c1ccc2oc3ccc(S(=O)(=O)N4CCCC4)cc3c(=O)c2c1 : 85

Measured inhibition, O=C(O)c1ccc2oc3ccc(S(=O)(=O)NCCO)cc3c(=O)c2c1 : 79

Measured inhibition, CC(C)CN(C)S(=O)(=O)c1ccc2oc3ccc(C(=O)O)cc3c(=O)c2c1 : 95

Measured inhibition, O=C(O)c1ccc2oc3ccc(SCCO)cc3c(=O)c2c1 : 93

Measured inhibition, CNS(=O)(=O)c1ccc2oc3ccc(C(=O)O)cc3c(=O)c2c1 : 75

---

# study_system: Aldo-keto reductase family 1 member B1 (Oryctolagus cuniculus) (UniProt P15122)
# test_summary: Antiallergic agent with Aldose reductase Inhibitory Activity at 10E-6 M concentration
quantity_name: inhibition (%)
Write it as a number; the unit % goes unstated.

Observe how each entry below is paired with its result.
# compound, inhibition / %
rows = [
    ("C[S+]([O-])c1ccc2oc3ccc(C(=O)O)cc3c(=O)c2c1 (stereo unspecified)", 0),
    ("CN(C)S(=O)(=O)c1ccc2oc3ccc(C(=O)O)cc3c(=O)c2c1", 67),
    ("CC(C)NS(=O)(=O)c1ccc2oc3ccc(C(=O)O)cc3c(=O)c2c1", 0),
]

Measured inhibition, O=C(O)c1ccc2oc3ccccc3c(=O)c2c1 : 0

Measured inhibition, O=C(O)c1ccc2oc3ccc([S+]([O-])CCO)cc3c(=O)c2c1 (stereo unspecified) : 17

Measured inhibition, O=C(O)c1ccc2oc3ccc(S(=O)(=O)N(CCO)CCO)cc3c(=O)c2c1 : 2

---

# study_system: UniProt P15122
# test_summary: Antiallergic agent with Aldose reductase Inhibitory Activity at 10E-6 M concentration
Note to self: values exactly at 20% are true (1). So inhibition at or above 20% is true (1), below is false (0).

Prompt line: Is inhibition for O=C(O)c1ccc2oc3ccc(S(=O)(=O)N4CCOCC4)cc3c(=O)c2c1 at or above 20%?
Response line: false (0)

---

# study_system: Aldo-keto reductase family 1 member B1 (Oryctolagus cuniculus) (UniProt P15122)
# test_summary: Antiallergic agent with Aldose reductase Inhibitory Activity at 10E-5 M concentration
Quick reference for inhibition among some compounds
Write it as a number; the unit % goes unstated.

Observe how each entry below is paired with its result.
# compound, inhibition, %
records = [
    ("CC(C)N(C)S(=O)(=O)c1ccc2oc3ccc(C(=O)O)cc3c(=O)c2c1", 69),
    ("O=C(O)c1ccc2oc3ccc([S+]([O-])CCO)cc3c(=O)c2c1 (stereo not given)", 50),
]

Value sought: inhibition, system Aldo-keto reductase family 1 member B1 (Oryctolagus cuniculus) (UniProt P15122), item CC(C)NS(=O)(=O)c1ccc2oc3ccc(C(=O)O)cc3c(=O)c2c1 . Result: 30

Value sought: inhibition, system Aldo-keto reductase family 1 member B1 (Oryctolagus cuniculus) (UniProt P15122), item O=C(O)c1ccc2oc3ccc(S(=O)(=O)O)cc3c(=O)c2c1 . Result: 43

Value sought: inhibition, system Aldo-keto reductase family 1 member B1 (Oryctolagus cuniculus) (UniProt P15122), item COCC[S+]([O-])c1ccc2oc3ccc(C(=O)O)cc3c(=O)c2c1 (stereo not given) . Result: 12

---

# study_system: Aldo-keto reductase family 1 member B1 (Oryctolagus cuniculus) (UniProt P15122)
# test_summary: Percent inhibition of rabbit lens aldose reductase in vitro at 10E-4 M concentration
Note to self: values exactly at 70% are rule met. So inhibition at or above 70% is rule met, below is rule not met.

Before answering, review these 2 worked examples.
# compound, class_name
data = [
    ("COCC[S+]([O-])c1ccc2oc3ccc(C(=O)O)cc3c(=O)c2c1 (stereo not given)", "rule not met"),
    ("O=C(O)c1ccc2oc3ccccc3c(=O)c2c1", "rule not met"),
]

Prompt line: Is inhibition for CN(C)S(=O)(=O)c1ccc2oc3ccc(C(=O)O)cc3c(=O)c2c1 at or above 70%?
Response line: rule met

Prompt line: Is inhibition for C[S+]([O-])c1ccc2oc3ccc(C(=O)O)cc3c(=O)c2c1 (stereo not given) at or above 70%?
Response line: rule not met

Prompt line: Is inhibition for O=C(O)c1ccc2oc3ccc(S(=O)(=O)CCO)cc3c(=O)c2c1 at or above 70%?
Response line: rule met

Prompt line: Is inhibition for CN(CCO)S(=O)(=O)c1ccc2oc3ccc(C(=O)O)cc3c(=O)c2c1 at or above 70%?
Response line: rule met

---

# study_system: UniProtKB P15122
# test_summary: Antiallergic agent with Aldose reductase Inhibitory Activity at 10E-6 M concentration
quantity_name: inhibition (%)
Write it as a number; the unit % goes unstated.

# compound, inhibition (%)
rows = [
    ("CC(O)c1ccc2oc3ccc(C(=O)O)cc3c(=O)c2c1 (stereo unspecified)", 10),
    ("O=C(O)c1ccc2oc3ccc(S(=O)(=O)O)cc3c(=O)c2c1", 0),
    ("CCN(C)S(=O)(=O)c1ccc2oc3ccc(C(=O)O)cc3c(=O)c2c1", 23),
    ("NS(=O)(=O)c1ccc2oc3ccc(C(=O)O)cc3c(=O)c2c1", 10),
    ("O=C(O)c1ccc2oc3ccc(OCC(O)CO)cc3c(=O)c2c1 (stereo unspecified)", 8),
    ("CC(C)N(C)S(=O)(=O)c1ccc2oc3ccc(C(=O)O)cc3c(=O)c2c1", 17),
    ("O=C(O)c1ccc2oc3ccc(S(=O)(=O)N4CCCC4)cc3c(=O)c2c1", 0),
    ("O=C(O)c1ccc2oc3ccc(SCCO)cc3c(=O)c2c1", 7),
    ("O=C(O)c1ccc2oc3ccc(S(=O)(=O)CCO)cc3c(=O)c2c1", 50),
    ("CN(CCO)S(=O)(=O)c1ccc2oc3ccc(C(=O)O)cc3c(=O)c2c1", 83),
]

Measured inhibition, O=c1c(O)c(-c2ccc(O)c(O)c2)oc2cc(O)cc(O)c12 : 9

Measured inhibition, CC(C)CN(C)S(=O)(=O)c1ccc2oc3ccc(C(=O)O)cc3c(=O)c2c1 : 25

Measured inhibition, COCC[S+]([O-])c1ccc2oc3ccc(C(=O)O)cc3c(=O)c2c1 (stereo unspecified) : 4

Measured inhibition, O=C(O)c1ccc2oc3ccc(S(=O)(=O)NCCO)cc3c(=O)c2c1 : 0

Measured inhibition, COC(C)c1ccc2oc3ccc(C(=O)O)cc3c(=O)c2c1 (stereo unspecified) : 0

Measured inhibition, CNS(=O)(=O)c1ccc2oc3ccc(C(=O)O)cc3c(=O)c2c1 : 25
